Entry source: PubChem BioAssay (Tox21)

assay: qHTS assay to test for compound auto fluorescence at 535 nm (green) in HEK293 cells (AID 720680); details: green autofluorescence 485/535 nm; series mostly up to 91.3 µM; note: % is set by controls: 0 for no effect and ±100 for the full control effect
Active and inactive are the calls of the source. Calls come from the whole dose curve; as a rule, active = well fitted curve in the direction sought with a large enough effect in the repeat runs; inconclusive = weak or mixed curves; inactive = flat fitted curve, though single readings scatter.
RESULT_TYPE: fluorescence, % of fluorescein

Below, each entry is followed by its recorded fluorescence, % of fluorescein result.
{"MOLECULE": "NS(=O)(=O)Cc1noc2ccccc12", "fluorescence, % of fluorescein": "inactive"}
{"MOLECULE": "O=C1c2ccccc2C(=O)c2cc(O)ccc21", "fluorescence, % of fluorescein": "inactive"}
{"MOLECULE": "CCCCCCCCCCCCCCCCCCO", "fluorescence, % of fluorescein": "inactive"}
{"MOLECULE": "CC(C)C[C@@H](N)C(=O)O", "fluorescence, % of fluorescein": "inactive"}
{"MOLECULE": "C[N+]1(C)CCCC(OC(=O)C(O)(c2ccccc2)c2ccccc2)C1 (stereo not drawn)", "fluorescence, % of fluorescein": "-0.129% [at 18.6 µM] (inactive)"}
{"MOLECULE": "O=C(c1ccccc1O)c1ccccc1O", "fluorescence, % of fluorescein": "inactive"}

input: For the molecule CC1=C(C/C=C(\C)CCC[C@H](C)CCC[C@H](C)CCCC(C)C)C(=O)c2ccccc2C1=O , what fluorescence, % of fluorescein is on record?
output: inactive

input: Field entry: CCCCc1nc(Cl)c(CO)n1Cc1ccc(-c2ccccc2-c2nn[nH]n2)cc1
output: inactive

input: Repeat with CN1CCN(c2cc3c(nn2)Oc2ccccc2N3C)CC1
output: inactive

input: Now consider O=C(O)Cc1csc(-c2ccc(Cl)cc2)n1 .
output: inactive

input: Likewise for CC(C)[C@H]1CC[C@@H](C)CC1=O ?
output: inactive

input: What do you get for CCC1C(=O)OCC1Cc1cncn1C (stereo not drawn) ?
output: inactive

input: Record: CC(C(=O)O)c1cccc(Oc2ccccc2)c1 (stereo not drawn)
output: 0.0474% [at 18.6 µM] (inactive)
